biological target: Acetylcholinesterase (Homo sapiens); test: Inhibition of human AChE using acetylthiocholine iodide as substrate at 10 uM incubated for 20 mins followed by substrate addition by Ellman's method relative to control
Please go through the items and note down their inhibition.
Express it in %; write the number only.

Record Cc1c(C)c2c(c(C)c1O)CCC(C)(C(=O)NCCCCCCNC(=O)Oc1ccc3c(c1)CN1CCc4ccccc4C1N3C)O2 (centres undefined) has Acetylcholinesterase (Homo sapiens) inhibition equal to 24.1

The reported Acetylcholinesterase (Homo sapiens) inhibition of CN1c2ccc(OC(=O)NCCCCNC(=O)/C=C/c3ccccc3)cc2CN2CCc3ccccc3C21 (centres undefined) is 6.1

Test item COc1ccc2[nH]cc(CCNC(=O)CCCCCCNC(=O)Oc3ccc4c(c3)CN3CCc5ccccc5C3N4C)c2c1 (centres undefined) ; Acetylcholinesterase (Homo sapiens); reported inhibition was 6.5

Result for COc1ccc2[nH]cc(CCNC(=O)CCCCNC(=O)Oc3ccc4c(c3)CN3CCc5ccccc5C3N4C)c2c1 (centres undefined) , tested on Acetylcholinesterase (Homo sapiens), inhibition: 15

Known value: Acetylcholinesterase (Homo sapiens) inhibition of the molecule CN1c2ccc(OC(=O)NCCCCCCNC(=O)/C=C/c3ccccc3)cc2CN2CCc3ccccc3C21 (centres undefined) equals 37.5

# COc1ccc2[nH]cc(CCNC(=O)CCNC(=O)Oc3ccc4c(c3)CN3CCc5ccccc5C3N4C)c2c1 (centres undefined) with Acetylcholinesterase (Homo sapiens): inhibition is 2.3

Bench note, Acetylcholinesterase (Homo sapiens): COc1cc(/C=C/C(=O)NCCCCNC(=O)Oc2ccc3c(c2)CN2CCc4ccccc4C2N3C)ccc1O (centres undefined) , inhibition reads 7.7

Let me check: Cc1c(C)c2c(c(C)c1O)CCC(C)(C(=O)NCCCCNC(=O)Oc1ccc3c(c1)CN1CCc4ccccc4C1N3C)O2 (centres undefined) , system Acetylcholinesterase (Homo sapiens), measured inhibition is 15.2

The observed inhibition for COc1cc(/C=C/C(=O)NCCCCCCNC(=O)Oc2ccc3c(c2)CN2CCc4ccccc4C2N3C)ccc1O (centres undefined) when tested with Acetylcholinesterase (Homo sapiens) stands at 20
